assay: Plasma pharmacokinetics after a single subcutaneous administration of LEN; assay type: in vivo, rhesus macaques; conditions: male, outbred Indian-origin, rhesus monkey, plasma, subcutaneous, 75 mg/kg, Plasma LEN (Mean), 75 mg/kg sc, week 3 post dose
Result Type: concentration at 3 weeks (nM)
The reply should be a number in nM, with the unit left off.

Return value of concentration at 3 weeks for input CC(C)(C#Cc1ccc(-c2ccc(Cl)c3c(NS(C)(=O)=O)nn(CC(F)(F)F)c23)c([C@H](Cc2cc(F)cc(F)c2)NC(=O)Cn2nc(C(F)(F)F)c3c2C(F)(F)[C@@H]2C[C@H]32)n1)S(C)(=O)=O , no commentary.
126

###

assay: Plasma pharmacokinetics after a single subcutaneous administration of LEN; format: in vivo, rhesus macaques; settings: male, Indian-origin (outbred), rhesus monkey, plasma, subcutaneous, 20 mg/kg, Plasma LEN (Mean), 20 mg/kg sc, week 11 post dose
Result Type: concentration at 11 week (nM)
Write down the numeric answer in nM and omit the unit.

Name the recorded concentration at 11 week of the item CC(C)(C#Cc1ccc(-c2ccc(Cl)c3c(NS(C)(=O)=O)nn(CC(F)(F)F)c23)c([C@H](Cc2cc(F)cc(F)c2)NC(=O)Cn2nc(C(F)(F)F)c3c2C(F)(F)[C@@H]2C[C@H]32)n1)S(C)(=O)=O [LEN, Lenacapavir] in your answer.
15

###

Assay: Plasma pharmacokinetics after a single subcutaneous administration of LEN
Assay type: in vivo, rhesus macaques
Conditions: male, outbred Indian-origin, rhesus monkey, plasma; 50 mg/kg sc, mean ± SD
Protocol: All animals were housed at Bioqual Inc. For the in vivo SHIV stock titration study, 8 untreated outbred Indian-origin male rhesus macaques aged 3–5 years were challenged intrarectally per round for a total of 5 challenge rounds using increasing virus doses ranging from 0.625 to 100 TCID50, with the 100 TCID50 round performed twice for increased resolution (Supplemental Table 2). Plasma viral load was measured to confirm the infection status. […]
Result Type: AUC(0-t) (µM·h)
Only the number, expressed in µM·h, is required.

Return the recorded AUC(0-t) value; entry: CC(C)(C#Cc1ccc(-c2ccc(Cl)c3c(NS(C)(=O)=O)nn(CC(F)(F)F)c23)c([C@H](Cc2cc(F)cc(F)c2)NC(=O)Cn2nc(C(F)(F)F)c3c2C(F)(F)[C@@H]2C[C@H]32)n1)S(C)(=O)=O [LEN, Lenacapavir]
179

###

experiment: Plasma pharmacokinetics after a single subcutaneous administration of LEN; assay type: in vivo, rhesus macaques; conditions: male, outbred Indian-origin, rhesus monkey, plasma, subcutaneous, 50 mg/kg, Plasma LEN (Mean), 50 mg/kg sc, week 5 post dose
Result Type: concentration at 5 weeks (nM)
Supply the numeric figure in nM, leaving out any unit text.

Report concentration at 5 weeks for CC(C)(C#Cc1ccc(-c2ccc(Cl)c3c(NS(C)(=O)=O)nn(CC(F)(F)F)c23)c([C@H](Cc2cc(F)cc(F)c2)NC(=O)Cn2nc(C(F)(F)F)c3c2C(F)(F)[C@@H]2C[C@H]32)n1)S(C)(=O)=O
80.6

###

assay: Plasma pharmacokinetics after a single subcutaneous administration of LEN; format: in vivo, rhesus macaques; details: male, Indian-origin (outbred), rhesus monkey, plasma, subcutaneous, 75 mg/kg, Plasma LEN, animal V426, 75 mg/kg, week 1 post challenge
Result Type: concentration at 1 weeks post challenge
Please don't drop the unit; write it after the number.

Read off the recorded concentration at 1 weeks post challenge for CC(C)(C#Cc1ccc(-c2ccc(Cl)c3c(NS(C)(=O)=O)nn(CC(F)(F)F)c23)c([C@H](Cc2cc(F)cc(F)c2)NC(=O)Cn2nc(C(F)(F)F)c3c2C(F)(F)[C@@H]2C[C@H]32)n1)S(C)(=O)=O [LEN, Lenacapavir]
68 nM

###

assay: Plasma pharmacokinetics after a single subcutaneous administration of LEN; assay type: in vivo, rhesus macaques; settings: male, Indian-origin, outbred, rhesus monkey, plasma, subcutaneous, 20 mg/kg, Plasma LEN (Mean), 20 mg/kg sc, week 0.14 post dose
Result Type: concentration at 0.14 week (nM)
Please respond with the number in nM and leave the unit unwritten.

Give the measured concentration at 0.14 week for CC(C)(C#Cc1ccc(-c2ccc(Cl)c3c(NS(C)(=O)=O)nn(CC(F)(F)F)c23)c([C@H](Cc2cc(F)cc(F)c2)NC(=O)Cn2nc(C(F)(F)F)c3c2C(F)(F)[C@@H]2C[C@H]32)n1)S(C)(=O)=O
41.3

###

test: Plasma pharmacokinetics after a single subcutaneous administration of LEN; assay type: in vivo, rhesus macaques; conditions: male, Indian-origin, outbred, rhesus monkey, plasma, subcutaneous, 75 mg/kg, Plasma LEN (Mean), 75 mg/kg sc, week 21 post dose
Result Type: concentration at 21 week

Please give the documented concentration at 21 week of CC(C)(C#Cc1ccc(-c2ccc(Cl)c3c(NS(C)(=O)=O)nn(CC(F)(F)F)c23)c([C@H](Cc2cc(F)cc(F)c2)NC(=O)Cn2nc(C(F)(F)F)c3c2C(F)(F)[C@@H]2C[C@H]32)n1)S(C)(=O)=O
12.3 nM

###

assay: Plasma pharmacokinetics after a single subcutaneous administration of LEN; assay type: in vivo, rhesus macaques; settings: male, outbred Indian-origin, rhesus monkey, plasma, subcutaneous, 10 mg/kg, Plasma LEN (Mean), 10 mg/kg sc, week 4 post dose
Result Type: concentration at 4 weeks (nM)
Write the value in nM as a bare number.

Report concentration at 4 weeks for CC(C)(C#Cc1ccc(-c2ccc(Cl)c3c(NS(C)(=O)=O)nn(CC(F)(F)F)c23)c([C@H](Cc2cc(F)cc(F)c2)NC(=O)Cn2nc(C(F)(F)F)c3c2C(F)(F)[C@@H]2C[C@H]32)n1)S(C)(=O)=O
10.2

###

test: Plasma pharmacokinetics after a single subcutaneous administration of LEN; type: in vivo, rhesus macaques; settings: male, Indian-origin (outbred), rhesus monkey, plasma, subcutaneous, 75 mg/kg, Plasma LEN, animal V435, 75 mg/kg, week 1 post challenge
Result Type: concentration at 1 weeks post challenge (nM)
State the answer as a number, implicitly in nM.

Identify the reported concentration at 1 weeks post challenge for the following entry. CC(C)(C#Cc1ccc(-c2ccc(Cl)c3c(NS(C)(=O)=O)nn(CC(F)(F)F)c23)c([C@H](Cc2cc(F)cc(F)c2)NC(=O)Cn2nc(C(F)(F)F)c3c2C(F)(F)[C@@H]2C[C@H]32)n1)S(C)(=O)=O [LEN, Lenacapavir]
12.5

###

test: Plasma pharmacokinetics after a single subcutaneous administration of LEN; type: in vivo, rhesus macaques; conditions: male, outbred Indian-origin, rhesus monkey, plasma, subcutaneous, 5 mg/kg, Plasma LEN (Mean), 5 mg/kg sc, week 4 post dose
Result Type: concentration at 4 weeks (nM)
Use nM as the unit, but write only the number.

Please supply the value of reported concentration at 4 weeks for the item CC(C)(C#Cc1ccc(-c2ccc(Cl)c3c(NS(C)(=O)=O)nn(CC(F)(F)F)c23)c([C@H](Cc2cc(F)cc(F)c2)NC(=O)Cn2nc(C(F)(F)F)c3c2C(F)(F)[C@@H]2C[C@H]32)n1)S(C)(=O)=O
4.14

###

experiment: Plasma pharmacokinetics after a single subcutaneous administration of LEN; format: in vivo, rhesus macaques; details: male, outbred Indian-origin, rhesus monkey, plasma, subcutaneous, 50 mg/kg, Plasma LEN (Mean), 50 mg/kg sc, week 4 post dose
Result Type: concentration at 4 weeks

Tell me measured concentration at 4 weeks for CC(C)(C#Cc1ccc(-c2ccc(Cl)c3c(NS(C)(=O)=O)nn(CC(F)(F)F)c23)c([C@H](Cc2cc(F)cc(F)c2)NC(=O)Cn2nc(C(F)(F)F)c3c2C(F)(F)[C@@H]2C[C@H]32)n1)S(C)(=O)=O please.
85.3 nM

###

experiment: Plasma pharmacokinetics after a single subcutaneous administration of LEN; format: in vivo, rhesus macaques; conditions: male, Indian-origin (outbred), rhesus monkey, plasma, subcutaneous, 50 mg/kg, Plasma LEN, animal V430, 50 mg/kg, week 16 post challenge
Result Type: concentration at 16 weeks post challenge (nM)
Answer with a number only, understood to be in nM.

Tell me concentration at 16 weeks post challenge reported for CC(C)(C#Cc1ccc(-c2ccc(Cl)c3c(NS(C)(=O)=O)nn(CC(F)(F)F)c23)c([C@H](Cc2cc(F)cc(F)c2)NC(=O)Cn2nc(C(F)(F)F)c3c2C(F)(F)[C@@H]2C[C@H]32)n1)S(C)(=O)=O
1.24

###

test: Plasma pharmacokinetics after a single subcutaneous administration of LEN; assay type: in vivo, rhesus macaques; conditions: male, outbred Indian-origin, rhesus monkey, plasma, subcutaneous, 75 mg/kg, Plasma LEN (Mean), 75 mg/kg sc, week 6 post dose
Result Type: concentration at 6 weeks (nM)
Please respond with the number in nM and leave the unit unwritten.

Provide measured concentration at 6 weeks value, entry: CC(C)(C#Cc1ccc(-c2ccc(Cl)c3c(NS(C)(=O)=O)nn(CC(F)(F)F)c23)c([C@H](Cc2cc(F)cc(F)c2)NC(=O)Cn2nc(C(F)(F)F)c3c2C(F)(F)[C@@H]2C[C@H]32)n1)S(C)(=O)=O [LEN, Lenacapavir]
65.1
